Experiment: qHTS for ATAD5 Antagonist screened against the NCATS CANVASS Library (AID 1347370); further: nearly all actives have a fitted effect of over 65% in size
Conditions: HEK293T-ATAD5-luc, 5-FUrd stimulated, luminescence, 16 h; series mostly up to 46.1 µM
Records with an inconclusive call do not appear. Active and inactive are the calls of the source. The call rests on the fitted dose curve; in most records, active means well fitted inhibition curve with a large enough effect; inconclusive means small, poorly fitted or top-dose-only effect; inactive means no such curve, though single readings can be large or run the other way.
Could you please pick one outcome from this set? active, inactive

Record lookup: outcome of this test for Oc1ccc(C2c3c(O)cc(O)cc3[C@@H]3C(c4ccc(O)cc4)c4c(O)cc(O)cc4[C@H]23)cc1 (some centres undefined) ?
inactive

What was the test verdict on CC1=CC2=C[C@H](C)C[C@@]23OC(=C(C)C3=O)CC(C)(C)/C=C/C1=O ?
active

I'd appreciate the recorded outcome for C/C=C/C(=O)[C@@H](C)C1=CC(=O)C2=C(O[C@@]34CC[C@H](O)C(C)(C)[C@@H]3CC[C@H](C)[C@@]4(C)C2)C1=O from this test.
active

Could you kindly confirm the outcome this assay logged for COc1cc(/C=C2/C(=O)N(c3ccc(O)cc3C(=O)O)[C@H](c3ccc(O)c(OC)c3)C2C(=O)Nc2ccc(O)cc2C(=O)O)ccc1O (some centres undefined) ?
inactive

Which outcome was assigned to O=C1c2c(O)cc(O)cc2O[C@@H](c2ccc(O)cc2)[C@@H]1c1c(O)cc(O)c2c(=O)cc(-c3ccc(O)c(O)c3)oc12 in this test?
inactive

Test call for this molecule, please: O=C(O)[C@@]12CO[C@@]3(O)C4CCN(CC[C@H]31)[C@H]4c1c2[nH]c2ccccc12
inactive

Tell me the recorded outcome of this test for CCCCCC[C@H](CCCCC[C@@H](O)C(N)=O)OC(=O)[C@@H]1CC=CN1C(=O)c1ccccc1O .
inactive

Call for entry CC(O)/C=C/C1(O)C(C)(C)CC(O)CC1(C)O (centres undefined) :
inactive

Dear colleague, could you share the recorded outcome for C[C@@H](O)[C@H]1OC(=O)C=C2[C@]3(C)[C@H]4[C@H](OC(=O)[C@@]4(C)[C@@H](O)[C@H]4O[C@H]43)[C@H]3O[C@@]231 when you have a moment?
inactive

Recorded test outcome, item O=C(O)[C@@]12COC3(O)C1CCN1CC[C@H]3[C@@H]1c1c2[nH]c2ccccc12
inactive

Recorded test call requested for O=C(O)CC1OCc2c(O)cccc21 (centres undefined)
inactive

What is the recorded call for this molecule in the test? COc1cc(O)c2c3c(c(O)cc(C)c13)C(=O)OC2
inactive

How did this test come out for C=C(C)[C@@H]1CC[C@]2(C)CC[C@]3(C)[C@H](CC[C@@H]4[C@@]5(C)CC[C@H](O)C(C)(C)[C@@H]5CC[C@]43C)[C@@H]12 ?
inactive

Call for entry Oc1ccc(/C=C2/c3cc(O)cc(O)c3C(c3ccc(O)cc3)[C@H]2c2cc(O)cc(O)c2)cc1 (some centres undefined) :
inactive

Called result for CN1C(=O)C2C(N=CN2C)N(C)C1=O (centres undefined)
inactive

Please state the recorded outcome for this molecule: C[C@H]1C[C@@H]([C@@H]2CC[C@]34O[C@H](CC[C@@]35C[C@H](C)C(=O)O5)CN24)OC1=O
inactive

Which outcome was assigned to COc1ccc(CCCc2cc(O)c(OC)c(O)c2)c(O)c1O in this test?
active

Hi, do you know how O=Cc1ccc2n1C[C@@]1(C[C@H](O)[C@@H](CO)O1)OC2 came out in this test?
inactive

Hi team, can someone confirm the assay call for COc1ccc([C@@H]2c3cc(OC)c(OC)cc3C(=O)C(C)C2C)cc1OC (some centres undefined) ?
active

Write down the call the test reported for this molecule. Item: C=C1C[C@@]23C=CC(=O)[C@@](C)(CCC(=O)Nc4c(OC5O[C@H](CO)[C@@H](O)[C@H](O)[C@H]5O)ccc(C(=O)O)c4O)C2C[C@@H]1CC3 (some centres undefined)
inactive

How did this test come out for CC(=O)O[C@H]1CC[C@@]2(C)C(CC[C@]3(C)C2CC=C2C4CC(C)(C)CC[C@]4(C)CC[C@]23C)C1(C)C (some centres undefined) ?
inactive

Tell me the recorded outcome of this test for C=C1C(=O)O[C@H]2[C@H]1CC/C(CO)=C\CC[C@@]1(C)O[C@@H]21 .
active

Test call, this molecule: CCC1=C2CCCN3C(=O)O[C@H]([C@H]1OC(C)=O)[C@H]23
inactive

Could you please tell me the result logged for C[C@@H]1O[C@@H](Oc2c(-c3ccc(O)cc3)oc3cc(O)cc(O)c3c2=O)[C@H](O)[C@H](O)[C@H]1O in this assay?
inactive

Please share the test call associated with C[C@@H]1C(=O)[C@]23CC[C@H]1C[C@]21O[C@H]2C(C)(C)C=CC(=O)[C@]23COC1=O .
inactive

Dear all, I need the recorded test outcome for C=C1[C@H]2CC[C@@]3(C=CC(=O)[C@@](C)(CCC(=O)Nc4c(O)ccc(C(=O)O)c4O)C3C2)[C@H]1O (some centres undefined) , thank you.
inactive

What call does the record list for C=C1/C=C\C(CCC)=C\c2csc(n2)C(C)NC(=O)C[C@@]2(CC(=O)O)CCC(=C)[C@H](C1)S2 (some centres undefined) ?
inactive

Check the results log: what was the call for C[C@@]12C[C@@H](C[C@H]3C(=O)O[C@@H](c4ccoc4)[C@H](OC(=O)c4ccccc4)[C@@H]31)OC2=O ?
inactive

Status in this test for C[C@@H]1C(=O)[C@]23CC[C@H]1C[C@]21O[C@H]2C(C)(C)C=CC(=O)[C@@]23COC1=O ?
inactive

// param item: COC1C(O)C(OC(N)=O)C(Oc2ccc3c(O)c(NC(=O)c4ccc(O)c(CC=C(C)C)c4)c(=O)oc3c2C)OC1(C)C (centres undefined) ; yields the recorded call
inactive

Hi, sorry to bother you, what did the test record for COc1ccc(/C=C2\COc3cc(O)ccc3C2=O)cc1 ?
inactive

Tell me the assay call for O=C1CC(c2cc(O)cc(O)c2)Oc2cc(O)ccc21 (centres undefined) please.
inactive

Tell me the assay call for C=C1C[C@@]23C=CC(=O)[C@@](C)(CCCC(C)C(=O)O)[C@@H]2C[C@@H]1CC3 (some centres undefined) please.
inactive

Which result was noted for this molecule in the test: CN1CC[C@]2(c3cccc4c3N[C@@H]3N(C)CC[C@]43[C@@]34CCN(C)[C@@H]3Nc3ccccc34)c3ccccc3N[C@H]12
inactive

---

Assay: ZIKV-mCherry secondary qHTS for Zika virus inhibitors (AID 1347158)
Settings: Vero cells, ZIKV-mCherry infection imaging, 48-72 h; series mostly up to 49.2 µM
Inconclusive results are not listed. The source made the active and inactive calls. Calls follow the shape of the dose curve; as a rule, active = well fitted inhibition curve with a large enough effect; inconclusive = small, poorly fitted or top-dose-only effect; inactive = no such curve, though single readings can be large or run the other way.
Respond only with the outcome that fits, drawn from yes (1) (active), no (0) (inactive)

Recorded test outcome, item O=C(O)c1ccc(C2Nc3ccccc3-c3nnc(SCc4ccc(Cl)cc4)nc3O2)cc1 (configuration not stated)
no (0)

Dear all, I need the recorded test outcome for O=C(O)c1cc(-n2c(/C=C\c3ccc(F)cc3)nc3ccccc3c2=O)ccc1Cl , thank you.
no (0)

Look up the recorded call for O=C(O)c1ccc(-c2cc(C(F)(F)F)ccc2Cl)cc1 in this test.
no (0)

// outcome(item) with item = O=C(OCc1cc(=O)n2nc(C3CC3)sc2n1)c1ccc(NC(=O)c2ccccc2F)cc1
no (0)

# lookup: test call for COc1ccc2c(c1)Oc1nc(-c3ccc(C)s3)nc(SCC(=O)Nc3cccc(C(=O)O)c3)c1C2
no (0)

Any idea what this test logged for CC(=O)C(N=Nc1ccc(S(=O)(=O)Nc2ccccn2)cc1)C(=O)Nc1ccc(Cl)cc1 (configuration not stated) ?
no (0)

Each compound tested received a call. Report the one for Cc1cccc(C)c1-n1c(SCC(=O)Nc2ccc(C(=O)O)cc2)nnc1-c1cccc([S+](=O)([O-])N2CCCC2)c1 .
no (0)

Record lookup: outcome of this test for COc1cc(C2Nc3ccccc3-c3nnc(SCc4ccc(Cl)cc4)nc3O2)ccc1OCC(=O)O (configuration not stated) ?
no (0)

Test call for this compound, please: Cc1ccc2nc(-c3ccc(N=Nc4cc(S(=O)(=O)O)c5ccccc5c4O)cc3)sc2c1S(=O)(=O)O
no (0)

Just curious, what result did O=C(OC1Cc2c(O)cc(O)cc2OC1c1cc(O)c(O)c(O)c1-c1c(C2Oc3cc(O)cc(O)c3CC2O)cc(O)c(O)c1O)c1cc(O)c(O)c(O)c1 (configuration not stated) get here?
no (0)

What classification did Cc1oc2c(cc(NS(=O)(=O)c3ccc(F)cc3)c3ccccc32)c1C(=O)OCc1ccccc1 end up with in this test?
no (0)

Hello, I am checking results. What call was entered for CC(C)c1ccc(NC(=O)c2ccc3c(O)c(S(=O)(=O)c4ccccc4)c(=O)[nH]c3c2)cc1 ?
no (0)

Call for entry COc1ccc(/C=C(\C#N)c2nc(-c3cc4c(ccc5ccccc54)oc3=O)cs2)cc1O :
no (0)

Recorded test outcome, item Cc1oc2c(cc(NS(=O)(=O)c3ccc(Cl)cc3)c3ccccc32)c1C(=O)OCc1ccccc1
no (0)

Would you mind telling me which call this test gave O=c1c(O)c(Br)ccc2c(Br)c(O)c(O)c(O)c12 ?
no (0)

# fetch the recorded call for O=C(O)c1c(-c2ccccc2)oc2ccc(OCc3ccc(Cl)c(Cl)c3)cc12 here
yes (1)

Record lookup: outcome of this test for Cc1c(C2(c3cc(C(C)C)c(O)c(Br)c3C)OS(=O)(=O)c3ccccc32)cc(C(C)C)c(O)c1Br ?
no (0)
